assay: Acute toxicity in mouse assessed as lethal dose at ip administration measured after 7 days; assay type: organism-based; details: in vivo, time 7 day
RECORDED METRIC: LD50 at 168 h (mg/kg)
Form entry: value (mg/kg) — number only.

Would you mind telling me what LD50 at 168 h value was observed for `CC(=O)Nc1nc(OCc2ccc(F)cc2)ccc1N` ?
421

* * *

assay: AUC (0 to t) in male Sprague-Dawley rat at 5 mg/kg, iv measured upto 24 hrs by LC-MS/MS analysis; type: ADME, organism-based; settings: in vivo
RECORDED METRIC: AUC(0-t) at 24 h (ng·h/mL)
Form entry: value (ng·h/mL) — number only.

Would you mind telling me what AUC(0-t) at 24 h value was observed for `CC(=O)Nc1nc(OCc2ccc(F)cc2)ccc1N` ?
1100
